Where do these numbers come from? They come from patent US20140205566A1.

- Test Protocol: Stability in liver microsomes
- Format: in vitro ADME
- Condition Description: human, read-out: liver microsomes t1/2
Assay Metric: half-life (min)
The figure you give is taken to be in min; do not add the unit.

For reference, reported half-life for COc1nc(N)nc2c1ncn2[C@@H]1O[C@H](CO[P@@](=O)(N[C@@H](C)C(=O)OC(C)C)Oc2ccccc2)[C@@H](O)[C@@]1(C)F [Comparative Example 4, reference compound] stands at 6

What the record says about CCOC(=O)[C@H](C)N[P@@]1(=O)OC[C@H]2O[C@@H](n3cnc4c(OCC)nc(N)nc43)[C@](C)(F)[C@@H]2O1 [Example 1] : half-life is 47

get_value(item= CCOc1nc(N)nc2c1ncn2[C@@H]1O[C@@H]2CO[P@@](=O)(N[C@@H](C)C(=O)OC(C)C)O[C@H]2[C@@]1(C)F [Example 2] , readout=half-life) returns 32

Lab note: CCOc1nc(N)nc2c1ncn2[C@@H]1O[C@@H]2CO[P@](=O)(N[C@@H](C)C(=O)OC)O[C@H]2[C@@]1(C)F [Example 3] gave half-life of 57

* * *

- Test Protocol: Nucleoside triphosphate concentrations in dog PBMC after oral administration
- Format: in vivo
- Condition Description: oral administration of 3 mg/Kg
Assay Metric: NTP AUC0-24h (fmol/3 million cells)
I only need the number, in fmol/3 million cells, no unit after it.

NTP AUC0-24h recorded for this compound, CCOc1nc(N)nc2c1ncn2[C@@H]1O[C@@H]2CO[P@@](=O)(N[C@@H](C)C(=O)OC(C)C)O[C@H]2[C@@]1(C)F , is 7218

Lab note: measured NTP AUC0-24h of CCOC(=O)[C@H](C)N[P@@]1(=O)OC[C@H]2O[C@@H](n3cnc4c(OCC)nc(N)nc43)[C@](C)(F)[C@@H]2O1 was 36900

Recorded result, CCOc1nc(N)nc2c1ncn2[C@@H]1O[C@@H]2CO[P@](=O)(N[C@@H](C)C(=O)OC)O[C@H]2[C@@]1(C)F , NTP AUC0-24h: 10457

Per the record, CCOc1nc(N)nc2c1ncn2[C@@H]1O[C@@H]2CO[P@@](=O)(N[C@H](C)C(=O)OC(C)C)O[C@H]2[C@@]1(C)F has NTP AUC0-24h of 11049

* * *

- Test Protocol: CCK8 cytotoxicity assay in THP-1 cells
- Type: cell-based
- Condition Description: human, CCK-8
- Description: 4 day cytotoxicity assay using THP-1 cells: THP-1 cells grown in suspension were counted and diluted to 8×10^4 cells/ml in RPMI-1640 media supplemented with 10% fetal bovine serum (FBS) and 1% penicillin/streptomycin. […] Cytotoxicity was measured by CCK-8 assay. […] The absorbance was read by Envision at 450 nm. Dose response curves were calculated as in the previous section (n=2). […]
Assay Metric: CC50 at 96 h

Noted for CCOc1nc(N)nc2c1ncn2[C@@H]1O[C@@H]2CO[P@@](=O)(N[C@H](C)C(=O)OC(C)C)O[C@H]2[C@@]1(C)F : its CC50 at 96 h reads > 50 µM

CCOc1nc(N)nc2c1ncn2[C@@H]1O[C@@H]2CO[P@](=O)(NCC(=O)OC(C)C)O[C@H]2[C@@]1(C)F has a reported CC50 at 96 h of > 50 µM

Measured CC50 at 96 h, CCOC(=O)[C@H](C)N[P@@]1(=O)OC[C@H]2O[C@@H](n3cnc4c(OCC)nc(N)nc43)[C@](C)(F)[C@@H]2O1 : > 50 µM
